// merged dataset of pIC50 values, system = Coagulation factor VII (Homo sapiens), multiple refs
Assayed System: Coagulation factor VII (Homo sapiens)
Sequence (P08709 whole entry): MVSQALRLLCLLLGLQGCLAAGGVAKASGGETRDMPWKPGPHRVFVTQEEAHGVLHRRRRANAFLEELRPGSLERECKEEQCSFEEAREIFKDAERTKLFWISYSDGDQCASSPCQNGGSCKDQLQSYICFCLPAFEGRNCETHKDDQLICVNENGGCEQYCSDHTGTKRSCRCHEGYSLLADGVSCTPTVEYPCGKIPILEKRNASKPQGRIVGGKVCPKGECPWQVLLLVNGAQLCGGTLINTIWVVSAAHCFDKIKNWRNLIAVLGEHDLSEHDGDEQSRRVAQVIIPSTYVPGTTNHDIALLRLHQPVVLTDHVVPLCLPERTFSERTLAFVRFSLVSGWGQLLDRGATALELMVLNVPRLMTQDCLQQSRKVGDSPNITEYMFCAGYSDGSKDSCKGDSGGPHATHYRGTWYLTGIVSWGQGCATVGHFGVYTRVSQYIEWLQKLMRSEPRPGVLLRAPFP
pIC50: −log10 of the molar value.
Measured Property: pIC50

- N=C(N)NCCC[C@H](NC(=O)[C@H](Cc1cccc(Cl)c1)NC(=O)[C@@H](Cc1ccccc1)NS(=O)(=O)Cc1ccccc1)C(=O)c1nccs1: 6.64
- CC1(C)COc2c(COc3ccccc3CC(=O)O)cc(-c3ccc4c(c3)[C@H](N)CCO4)cc21: 4.12
- N=C(N)c1ccc(CNC(=O)Cn2c(-c3cccc(N)c3)c(Cl)nc(NC3CCC3)c2=O)c(C(F)(F)F)c1: 6.10
- N=C(N)NCCC[C@H](NC(=O)[C@H](Cc1cc(F)c(F)c(F)c1)NC(=O)[C@@H](Cc1ccccc1)NS(=O)(=O)Cc1ccccc1)C(=O)c1nccs1: 6.70
